Every entry's value here was drawn from patent US12453712B2.

test: Population pharmacokinetic analysis in patients
Type: in vivo, human
assay_conditions: human, plasma, intravenous, 25 mg/m^2; Cmax reached at the end of the 1-hour infusion
measure: Tmax (h)
# value in h; strip the unit string

Please give the measured Tmax for this compound: CO[C@H]1C(=O)[C@]2(C)[C@@H](OC)C[C@H]3OC[C@@]3(OC(C)=O)[C@H]2[C@H](OC(=O)c2ccccc2)[C@]2(O)C[C@H](OC(=O)[C@H](O)[C@@H](NC(=O)OC(C)(C)C)c3ccccc3)C(C)=C1C2(C)C [cabazitaxel]
1

---

test: Population pharmacokinetic analysis in patients
Format: in vivo, human
assay_conditions: human, plasma, iv, 1-hour intravenous infusion, 3-compartment PK model; read-out: β-half-life (converted)
measure: half-life (h)
# value in h; strip the unit string

Please give the measured half-life for this molecule: CO[C@H]1C(=O)[C@]2(C)[C@@H](OC)C[C@H]3OC[C@@]3(OC(C)=O)[C@H]2[C@H](OC(=O)c2ccccc2)[C@]2(O)C[C@H](OC(=O)[C@H](O)[C@@H](NC(=O)OC(C)(C)C)c3ccccc3)C(C)=C1C2(C)C [cabazitaxel]
2
